The reported measurements were obtained from PubChem BioAssay (NCI).

# Tested on: DMS 114 small cell lung
# Protocol description: NCI tumour cell line growth inhibition, 48 h
Consider the following molecules and their measured TGI readings.

Molecule | TGI
CCOC(=O)NC1CC2CCC1(OC)C=C2C (centres undefined) | > 100 µM
CC(C)c1cccc(C(C)C)c1NC(=O)CCC(=O)NN | > 100 µM
CCOC(=O)c1cc(OC(=O)CC)c2c(OC)ccc(OC)c2c1 | > 100 µM
O=NN(CCCl)C(=O)N[C@H]1CCCC[C@@H]1Cl | > 100 µM

----------
Some compounds, each annotated with its measured TGI.
# Tested on: M14 melanoma
# Protocol description: NCI tumour cell line growth inhibition, 48 h
Quantity kind: TGI

Smiles text | Endpoint result
COc1ccc(C)cc1Nc1nnc(-c2ccc(N)cc2)s1 | > 100 µM
O=C(/C=C/c1ccc2c(c1)OCO2)CC(=O)/C=C/c1ccc2c(c1)OCO2 | > 100 µM
Cn1c(=O)c2[nH]c(CCCCc3nc4c([nH]3)c(=O)n(C)c(=S)n4C)nc2n(C)c1=S | > 100 µM
COC(=O)Cc1cc(=O)n2c([nH]c3ccccc32)c1C#N | > 100 µM

----------
GI50: recorded values
# System: CCRF-CEM leukemia
# Protocol description: NCI tumour cell line growth inhibition, 48 h
Quantity kind: GI50

Smiles text | Quantity kind | Endpoint result
COc1cnc2c(c1)C(=O)c1c-2n(CCCNC(C)C)c(=O)c2cc([N+](=O)[O-])ccc12 | GI50 | 0.029 µM
C[C@@H]1OCC2(CCN(c3cnc(Sc4ccnc(N)c4Cl)c(N)n3)CC2)[C@@H]1N | GI50 | > 95.6 µM
CC(C)(C)c1cc(-c2nc3c(F)c(F)c(F)c(F)c3[nH]2)cc(C(C)(C)C)c1O | GI50 | > 100 µM
CCN(CC)CC[n+]1cc2cc(OC)c(OC)cc2c2ccc3cc4c(cc3c21)OCO4 | GI50 | 0.325 µM

----------
# System: SF-295 CNS
# Protocol description: NCI tumour cell line growth inhibition, 48 h

Smiles text | Target or system | TGI
Fc1ccc2c3c([nH]c2c1)CCNC3 | SF-295 CNS | > 100 µM
CCOC(=O)c1cc2cc(C)cc(C(=O)c3ccc([N+](=O)[O-])cc3)c2[nH]1 | SF-295 CNS | > 100 µM
CNC(=O)Nc1ccccc1 | SF-295 CNS | > 100 µM

----------
# Test system: SF-295 CNS
# Protocol description: NCI tumour cell line growth inhibition, 48 h
Measured TGI of individual entries
Quantity kind: TGI

Compound | Target or system | Quantity kind | Endpoint result
CCOC(=O)c1cc(Br)c(-c2onc(C)c2Br)n1C | SF-295 CNS | TGI | 76.2 µM
N#Cc1nn(-c2cc(=O)[nH]c3ccc(Br)cc23)c(N)c1C#N | SF-295 CNS | TGI | > 100 µM
COc1ccc2c(c1)OC(c1ccccc1O)CC2=O (centres undefined) | SF-295 CNS | TGI | > 100 µM
CCOC(=O)c1ccc(N=c2oc3ccc(OC)cc3cc2-c2nc3ccccc3[nH]2)cc1 | SF-295 CNS | TGI | > 100 µM

----------
Quick reference for TGI among some molecules
# Test system: HCT-15 colon
# Protocol description: NCI tumour cell line growth inhibition, 48 h

Smiles text | Target or system | TGI
COc1ccc(-n2sc3ncc([N+](=O)[O-])cc3c2=O)cc1 | HCT-15 colon | > 100 µM
Nc1ccccc1C#Cc1ccccc1C#Cc1cnccn1 | HCT-15 colon | 34.6 µM
Cc1ccc(S(=O)(=O)Nn2c(O)c(C#N)c(-c3ccc(N(C)C)cc3)c(C#N)c2=O)cc1 | HCT-15 colon | > 50 µM
CC(C)c1ccc2nc3ccc(C(=O)NCCN4CCN(c5ccccc5)CC4)cn3c(=O)c2c1 | HCT-15 colon | > 100 µM
CC#CC(=O)N1CC[C@@H](n2c(=O)n(-c3ccc(Oc4ccccc4)cc3)c3c(N)ncnc32)C1 | HCT-15 colon | > 100 µM
